assay: growth suppression of beta-catenin knockout HCT116, pilot screen, human colon tumor cells (AID 823); details: CellTiter-Glo, 60 h, at 10 µM, stronger effect = lower value;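 further: 0% = wells killed by 20 µM Hyamine and 100% = untreated DMSO cell wells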
Records with an inconclusive call do not appear.
quantity_name: viability (%)
// units = %; emit number, no label

The following compounds have reported results that may help.
Cc1cccc(N2C(=O)SC(N(CC(=O)O)c3cccc(C)c3)C2=O)c1 (stereo not given) :: 103
COC(=O)C1C(=O)c2c([nH]c(C(=O)OC3CCCCC3)c2C)CC1C (stereo not given) :: 107
O=C1CC(c2ccco2)CC(O)=C1C=NCCO (stereo not given) :: 104
Cc1noc(NS(=O)(=O)c2ccc(NC(=O)CCn3c(=O)oc4ccccc43)cc2)c1C :: 97.7
Cc1ccc2c(c1)C1(C(=O)N2C)N2CC3(C)CN1CC(C)(C2)C3=O (stereo not given) :: 99.1

# query: viability of entry C=C(C)c1cccc(C(C)(C)NC(=O)N2CCN(c3ccccn3)CC2)c1
75.8

Next: Cc1ccc(-c2nnc3ccc(SC(C)C(=O)O)nn23)cc1 (stereo not given)
99.1

Next: CCOCCn1c(SCc2cccc(C)c2)nc2c1c(=O)[nH]c(=O)n2C
98

Next: COc1ccc(NC(=O)CSc2nnc(-c3ccc(C)cc3)n2N)cc1
100

Next: Cc1ccc(N2C(=O)c3ccccc3C2Nc2ccccc2F)nc1 (stereo not given)
88.3

Next: CC(C)C(=O)N=c1sc2cc(F)cc(F)c2n1C
94.1

Next: COc1ccc(C2C(C(=O)N3CCCC3)c3cc(OC)c(OC)cc3C(=O)N2C)cc1OC (stereo not given)
105

Next: CCCCNc1ncnc2c1cnn2-c1ccc(C)cc1C
92.8

Next: COc1ccccc1Nc1cc(C(=O)NCCCN2CCOCC2)c2ccccc2n1
89.1

Next: Cc1ccc(C2c3c(oc4ccc(C)cc4c3=O)C(=O)N2CCCN2CCOCC2)cc1 (stereo not given)
77.3

Next: Cc1ccc(S(=O)(=O)NC2OC(=O)C(Cl)=C2Cl)cc1 (stereo not given)
86.4

Next: CCOC(=O)c1ccn(-c2nc(-c3ccco3)cc(C(F)(F)F)n2)n1
106

Next: CCCc1cc(C(=O)Nc2sc(C)c(CC)c2C#N)no1
102

Next: Cc1nc2sc(C(c3ccccc3)N3CCN(C)CC3)c(O)n2n1 (stereo not given)
100

Next: O=C1Nc2ccccc2C(O)(C(=O)NCc2ccco2)N1c1ccccc1 (stereo not given)
108

Next: O=C(O)c1ccccc1C(=O)NCC(O)COCC1CC=CCC1 (stereo not given)
101

Next: COc1ccc2ccccc2c1C1CC(=O)N2CN(Cc3ccco3)CSC2=C1C#N (stereo not given)
82.5

Next: O=C(c1ccccc1)c1cccc(NC(=O)c2ccco2)c1
92.5

Next: O=C(CN(Cc1ccccc1)S(=O)(=O)c1ccccc1)NC1CC1
102

Next: CCOC(=O)N1CCN(C(=O)c2cc3c(-c4ccc(Cl)cc4)nn(C)c3s2)CC1
55.8

Next: CC(=O)c1ccc(OCC(C)C)c(CC(C(N)=O)C(N)=O)c1
108

----------
test: OD615 S. cerevisiae growth inhibition, permissive medium, pilot counter-assay, permissive growth control for S. cerevisiae lifespan shortening project (AID 705); conditions: OD615, 24 h, at 10 µM, stronger effect = higher value
quantity_name: growth inhibition (%)
// units = %; emit number, no label

The following compounds have reported results that may help.
O=C(NC1CCCCC1)N1CCCc2ccccc21 :: 2.93
Cc1cc(N2CCOCC2)cc(C)[n+]1[O-] :: -2.4
CCOC(=O)CCn1cc(F)c(=O)n(Cc2ccccc2)c1=O :: 3.69
CC1Cc2ccccc2N1C(=O)C1CCCN(S(=O)(=O)c2cccc3cccnc23)C1 (configuration not stated) :: -6.46
CCOC(=O)c1ccc(NC(=O)CSc2nc(C)cc(=O)[nH]2)cc1 :: -7.82
c1ccc(Sc2nc(N3CCCCC3)nc(N3CCCCC3)n2)nc1 :: 4.63
Cn1c(Cn2c(=O)sc3ccccc32)nnc1SCC(=O)NC1CCCC1 :: -9.37
Cn1c(NC(=O)C2CC2)cc(=O)n(C)c1=O :: 0.21

# query: growth inhibition of entry CCCC(=O)OCCNC(=O)c1cc2ccccc2oc1=O
-4.39

Next: O=S(=O)(CCc1nnc(-c2ccccc2)o1)c1ccc2ccccc2c1
-16.3

Next: O=C(CSCC(=O)N1CCOCC1)Nc1nc(-c2ccc3c(c2)OCO3)cs1
-15

Next: Cn1c(=O)n(C)c2cc(S(=O)(=O)O)ccc21
5.19

Next: Oc1cccc(/C=N/c2c(-c3ccco3)nc3ccccn23)c1
-9.82

Next: COc1ccc(OC)c(S(=O)(=O)NCCc2cn3ccsc3n2)c1
-6.71

Next: Cc1ccc(N2C(=O)c3ccccc3C2Nc2ccccc2F)nc1 (configuration not stated)
-7.38

Next: Fc1ccc(-n2[nH]nnc2=S)cc1N1CCCC1
-3.75

Next: O=C(NCCOC(=O)c1ccc(S(=O)(=O)N2CCOCC2)cc1)c1cccnc1
-19.9

Next: Cc1cc(C)n(C(CC(=O)N2CCc3ccccc3C2)C(=O)O)n1 (configuration not stated)
-3.07

Next: CCCc1c(C(=O)OCC)[nH]c2c1C(=O)CCC2
1.82

Next: O=C(O)CC(C(=O)NC1CCCCC1)C1CCCO1 (configuration not stated)
-1.02

Next: Cc1ccc(C(=O)Nc2ccc(S(=O)(=O)N3CCN(C)CC3)cc2)o1
-8.11

Next: CCOC(=O)C1CCCCN1C(=O)CCc1c(C)nc2cc(-c3ccccc3)nn2c1C (configuration not stated)
4.13

Next: CC(C)N(Cc1nc(-c2ccccc2)no1)C(=O)COc1ccccc1
-12

----------
// reported viability per item
test: growth suppression of beta-catenin knockout HCT116, pilot screen, human colon tumor cells (AID 823); details: CellTiter-Glo, 60 h, at 10 µM, stronger effect = lower value;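 further: 0% = wells killed by 20 µM Hyamine and 100% = untreated DMSO cell wells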
Results filed as inconclusive are left out.
// units = %; emit number, no label

The following compounds have reported results that may help.
COC(=O)CCS(=O)(=O)c1cc(Cl)ccc1Cl :: 95.4
Cc1cc(C)cc(-n2cc3c(=O)n(C)c(=O)n(C)c3c2)c1 :: 102
CC(C)N1CCc2c(sc(NC(=O)c3ccc(S(=O)(=O)N4CCOCC4)cc3)c2C(N)=O)C1 :: 92.6
CCN(CCCNC(=O)Cn1cc2c(n1)CCCC2)c1cccc(C)c1 :: 86
Cc1ccc(-c2nc(CS(=O)(=O)CC(=O)NC3CCCCC3C)c(C)o2)cc1 (stereo unspecified) :: 93
CC1CN(C(=O)Nc2ccc3snnc3c2)c2ccccc21 (stereo unspecified) :: 82
Cc1ccc(C(=O)CC2(O)C(=O)N(C)c3ccccc32)o1 (stereo unspecified) :: 99.3
CC1CC=C2C(C#N)=C(N)C(C#N)(C#N)C(c3cccs3)C2C1 (stereo unspecified) :: 85.5

# query: viability of entry CC(=O)c1cccc(NC(=O)Cn2cc3c(n2)CCCC3)c1
97.5

Next: CCc1ccccc1NC(=O)c1cc2sccc2n1C
90.4

Next: CCOC(=O)c1ccc(NC(=O)CSc2nc3c(c(=O)n2C)SC(C)C3)cc1 (stereo unspecified)
72.9

----------
assay: viability gain of MRP-1-high H69AR cells under doxorubicin, pilot screen, MRP-1 activator project, CellTiter-Glo, duplicate (AID 807); settings: H69AR viability with doxorubicin, CellTiter-Glo luminescence; at 10 µM; stronger effect = higher value;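 further: compound pretreatment 18-22 h then 72 h combined with doxorubicin; 0% = doxorubicin alone and 100% = vehicle without doxorubicin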
quantity_name: viability increase (%)
// units = %; emit number, no label

CSc1nc(C)cc(SCCO)n1 :: -1.79
O=C(CCNS(=O)(=O)c1cccc2nsnc12)NCCc1ccccc1 :: -1.34
CCCC(=O)N1CC(=O)Nc2ccc(F)cc2C1c1ccccc1 (configuration not stated) :: -1.01

# query: viability increase of entry CC1(C)Cc2c(C#N)c(NCCCO)nc(-c3ccccc3)c2CO1
-4.65

Next: Cc1ccc(Cl)cc1NC(=O)Cn1cc2c(n1)CCCC2
-2.72

Next: CC1CCC(n2c(=S)[nH]c3ccccc3c2=O)CC1 (configuration not stated)
-4.34

Next: CS(=O)(=O)c1ccc2nc(NC(=O)c3ccco3)sc2c1
-7.64

Next: CCCN1Cc2cccc(C(=O)N3CCN(c4cc(Cl)ccc4C)CC3)c2C1=O
-0.17

----------
experiment: Restrictive medium S. cerevisiae growth inhibition, OD615, pilot screen of yeast lifespan reduction project, restrictive growth control (AID 706); conditions: OD615, 48 h, at 10 µM, stronger effect = higher value;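 further: modified DeaD lifespan yeast strain shifted to restrictive glucose medium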
quantity_name: growth inhibition (%)
// units = %; emit number, no label

The following molecules have reported results that may help.
COc1ccc(-c2nc(CS(=O)CC(=O)NCc3cccnc3)c(C)o2)cc1OC (configuration not stated) :: -2.94
COc1ccc(NC(=O)Nc2cccc(C)n2)cc1 :: 21.5
COc1cccc(NC(=O)CN2C(=O)COc3ccc(Cl)cc32)c1 :: -17.7
CCCCOC(=O)CCc1n[nH]c(=O)[nH]c1=O :: -17.6
CCN(CC)S(=O)(=O)c1cc(C(=O)Nc2ccc(Cl)cn2)ccc1C :: -11.5
Cn1c(=O)c2c(nc(CN3CCOCC3)n2CCCO)n(C)c1=O :: -3.44
CC12C(=O)N(c3ccccn3)C(=O)C1C1C=CC2C1 (configuration not stated) :: -4.06
CCC(C)Nc1nc2c(c(=O)n(C)c(=O)n2C)n1Cc1ccc(Cl)cc1 (configuration not stated) :: -4.79
CCOC(=O)N1CCC(NC(=O)c2csc3c2CCCC3)CC1 :: -14.7
Cn1c(NC(=O)c2cccs2)cc(=O)n(C)c1=O :: 0.885

# query: growth inhibition of entry O=C(NCCc1ccccc1)c1ccncc1
4.46

Next: COc1ccc(-n2nc3cc(C)c(NC(=O)CC(C)C)cc3n2)cc1
-3.86
